B1: tRNA (parent)
chain: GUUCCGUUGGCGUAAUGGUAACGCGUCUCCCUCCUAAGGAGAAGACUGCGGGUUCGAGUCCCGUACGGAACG

variants of: B1; test: yeast fitness relative to wild type (ratio to wild type); higher = fitter; tRNA-Arg(CCU), competitive growth, 37 C, YPD
Fewer inactive variants are shown than the library holds.
endpoint.label: yeast fitness

INSERT INTO results (polymer_sequence, val) VALUES
  ('GUUCCGCUGGCGUAAUGGUAACGCGUCUCCCUCCUAAGGAGAAGACUGCGGGUUCGAGUCCCGCACGGAACG', 0.88),
  ('GUUCUGUUGGCGUAAUGGUAGCGCGUUUCCCUCCUAAGGAAAAGACUGCGGGUUCGAGUCCCUUACGGAACG', '≤ 0.5'),
  ('GUUCCGUUGAAGUAAUGGUAAUGCGUCUCCCUCGUAAGGAGACGACUCCGGGUUCGAGUCCCGUACGGAACG', 0.585),
  ('GUUCCGUUGGUGUAAAGGUAACGCGUCUCCCUCCUAAGGAGAAGACUGCGGGUUCGAGUCCCGUACGGAACG', 0.819),
  ('GUUCCGUUGGCAUAAUGGUAACGAGUCUCCCUCCUUAGGAGAAGACUGCGGGUUCGAGUCCCGUACGGAACG', 0.666),
  ('GUUCCGUUGGCGUACUGGUAACGCGUCUCCCUCCUUAGGAGAAGACUGCGGGUUCGAGUCACGUACGGAACG', '≤ 0.5'),
  ('GUUCCGCUGGCGUAAUGGUAACGCGUCUCCCUCCUAUGGAGAAGACUGCGGGUUCGAGUCCCGUACGGAACG', 0.625),
  ('GUUCCGUUGGCGUAACGGUAACGCGUCUCCCUCCUAAGGAGAAGACUGCGGGUACGAGUCCCGUACGGAACG', 0.685),
  ('GUUCCGUUGGCGUAAUGGUAACGCGUCUCCCUCCUAAGGUGAAGACUACGGGUUCGAGUCCCGGACGGAACG', 0.631),
  ('GUUCCGUUGGCGCAAUGCUAACGCGUCUCCCUCCUAAGGAGAAGACUGCGGGUUCGAGUCCCGUACGGAACG', 0.618),
  ('GUUCCGUUGGCGUAAUGGUAAUGCGUCUCCCUCCUAAGAAGAAGACUGGGGGUUCGAGUCCCGUACGGAACG', '≤ 0.5'),
  ('GUUCCGUUGACGUAAUGGUAACGUGUCUCCCUCCUCAGGAGAAGACUGCGGGUUCGAGUCCCGUACGGCACG', 0.534),
  ('GUUCCGUCGCCGUACUGGUAACGCGUCUCCCUCCUAAGGAGACGACUGCGGGUUCGAGUCCCGUACGGAACG', '≤ 0.5'),
  ('GUUCCGUUGGCGUAAUGGUAACGCGUCUCCCUCUUAAGGCGCAGACUACGGGUUCGAGUCCCGUACGGAACG', '≤ 0.5'),
  ('GUUCCGUUGGCGUAAUGGUAGCGCGUCUCAUUCCUAAGGAGAAGACUGCGGGUUCGGGUCCCGUUCGGUACG', '≤ 0.5'),
  ('GUUCCGAUCGCGUAAUGGUAACGCGUCUCCCUCCUAAGGCGAAGACCGCGGGUUCGAGUCCCGUACGGAACG', '≤ 0.5'),
  ('GUUCCGUUGCCGUAAUGGUAACGCGUCUCCCUCCUAAGGAGAAGACUGCGGGUUCGAGUCCCAUAUGGAACG', '≤ 0.5'),
  ('GUUCCGUUGGCGUAAUGGUAACGCGUCUCCCUCCUUAGGGGAAGACUGCGGGAUCGAGUCCCGUACGGAACG', 0.627),
  ('GUUCCGUUGGCGUAAUGGUAACGCGUCUCCGUCUUAAGGCGAAGACUGCAGGUUGGAGUCCAGUACGGAACG', '≤ 0.5'),
  ('GUGCCGUUGGCGUAACGGUAACGCGUCUCCCUCCUAAGGAGAAGACUUCGGGUUCGAGUCCCGUACGGAACG', 0.633),
  ('GUUCCGUUGGCGUAAUGGUAACGCGUCUUCCUCCUAAGGAGAAGACUGCGGGUUCGAGUCCCGUCCGGCACG', '≤ 0.5'),
  ('GUUCCGUUGGCGUAAUGGUAACGUGUCUCCCUCCUAAGGAGAAGACUGCGGGUUCGAGUCCCGUACGAACCG', 0.656);
